# Tested on: MS2 coat protein
# MEASUREMENT PROTOCOL: apparent KD of MS2 coat protein; higher = weaker reporter binding
# RUN PARAMETERS: Eterna round: R107; input ligand: tryptophan 2.4 mM
Binning rule for recorded apparent KD of MS2 coat protein: group 1 = under 20 nM, group 2 = from 20 nM up to 100 nM, group 3 = 100 nM and over

Worked examples, 3 sequences total:
BIOSEQUENCE	GROUP LABEL
ACGAACUGUAGUGAUACCAGACGUACAUGAGGAUCACCCAUGUUGUAAACAUGGUUAAUAGUCCCUUGGCAGCACAGUUAGUUCG [JR_ExcTheophyB_Sub002]	group 3
UCGCUCUGGGUGAAUUCCGGAGAUGUGGAAGGAGCGGACGAAAGUCCAGGUAGGUCGCCAUCGGACAUGAGGAUCACCCAUGUAC [Same State - Arginine A (Freestyle 22)]	group 2
CCUCGGGACCGAAGGAGCGAGAUAACAACAUUGGGUCUCAACACAUGAGGAUCACCCAUGUCUCAGGUAGGUCGCGGUACCAUGG [Exclusion Arginine B GF22]	group 3

Q) Exam item: assign UGACAUUGCUCAGAUACCAGACGUGAGCAUCAGCCAUGUGCCAACAAGUACAAAAUAAAUGUCCCUUGGCAGCUGAGCAAUGUCU [TheoBX 22 #MS2Left #AlternativeMS2 #Theo22] to the correct category.
A) group 1

Q) Entry to check: GGAUAGGACAGAAGGAGCGACAUGGCGACGAAAGUCGAAACUUCACAUGAGGAUCACCCAUGUCAGGUAGGUCGCUGUCCUAUCG [ArgXB 7 #MS2Gate #StaticStem]
A) group 2

Q) How about this sequence: AAGGUGAUCCCAGAUACCAGCUUAACAUGAGGAUCACCCAUGUUUGGGACGAAAGUCCCGGGCCCUUGGCAGCUGGGUUGCCAAG [SSTheo B #18]
A) group 3

Q) Let us now turn to AUCGUACCUGAUGAUACCAGCAUGUGAUCGUAACAUGAGGAUCACCCAUGUAAUCAGUGAUGCCCUUGGCAGCAUGAUCGGUACA [Same State - Theophylline B (Freestyle 14)]
A) group 2
